assay.notes: Particle size and PDI of lipid nanoparticles by dynamic light scattering
Type: physicochemical
setup.conditions: lipid nanoparticles with luciferase mRNA; ionizable lipid/cholesterol/DSPC/DMG-PEG2000 50/38.5/10/1.5 mol%
Hi there, I'd appreciate the recorded Particle size (nm) for every entry that follows.
One number for each entry, in nm.

Record excerpt, results attached:
CCCCCCCCCOC(=O)OCCCCCCN(CCO)CCCCCCC(C)(C)C(=O)OCCCC(CCCCC)CCCCC [35a] | 126.63
CCCCCCCCCOC(=O)CCCCC(C)(C)CCN(CCO)CCCCCCCC(=O)OCCC(CCCCCC)CCCCCC [27a] | 136.43

Batch lookup, Particle size (nm) per entry.
1. CCCCCCCCCC(=O)OCCCC(C)(C)CCCN(CCCCO)CCCCCCC(=O)OCCC(CCCCCCC)CCCCCCC [93b]
2. CCCCCCCCCCC(=O)OCCC(C)(C)CCCCN(CCCCO)CCCCCCCC(=O)OCC(CCCCCCCC)CCCCCCCC [101b]
3. CCCCCCCCCC(=O)OCC(C)(C)CCCCCN(CCO)CCCCCCCC(=O)OCCC(CCCCCC)CCCCCC [10b]

## Result
1. 141.73
2. 126.00
3. 114.72

Batch lookup, Particle size (nm) per entry.
1. CCCCCCCCCC(=O)OCCC(C)(C)CCCCN(CCO)CCCCCCCC(=O)OCC(CCCCCCC)CCCCCCC [56b]
2. CCCCCCCCCC(=O)OCC1(CCCCCN(CCCCCCCC(=O)OCC(CCCCCCC)CCCCCCC)C(=O)SCCCN(C)C)CC1 [43b]

## Result
[98.59, 121.89]

Batch lookup, Particle size (nm) per entry.
1. CCCCCCCCCC(=O)OCC(C)(C)CCCCCN(CCO)CCCCCCC(=O)OCC(CCCCCCCC)CCCCCCCC [67b]
2. CCCCCCCCCCC(=O)OCC(C)(C)CCCCCN(CCO)CCCCCCCC(=O)OC(CCCCCCCCC)CCCCCCCCC [16b]
3. CCCCCCCCCCC(=O)OCC(C)(C)CCCCCN(CCO)CCCCCCCCC(=O)OCC(CCCCCCC)CCCCCCC [87b]

## Result
1: 88.28; 2: 101.90; 3: 92.25
